Answer each item with its documented inhibition at 0.75 h, 3 µM.
- Assay Target: CYP1B1 (Homo sapiens)
- Sequence (Q16678 whole entry): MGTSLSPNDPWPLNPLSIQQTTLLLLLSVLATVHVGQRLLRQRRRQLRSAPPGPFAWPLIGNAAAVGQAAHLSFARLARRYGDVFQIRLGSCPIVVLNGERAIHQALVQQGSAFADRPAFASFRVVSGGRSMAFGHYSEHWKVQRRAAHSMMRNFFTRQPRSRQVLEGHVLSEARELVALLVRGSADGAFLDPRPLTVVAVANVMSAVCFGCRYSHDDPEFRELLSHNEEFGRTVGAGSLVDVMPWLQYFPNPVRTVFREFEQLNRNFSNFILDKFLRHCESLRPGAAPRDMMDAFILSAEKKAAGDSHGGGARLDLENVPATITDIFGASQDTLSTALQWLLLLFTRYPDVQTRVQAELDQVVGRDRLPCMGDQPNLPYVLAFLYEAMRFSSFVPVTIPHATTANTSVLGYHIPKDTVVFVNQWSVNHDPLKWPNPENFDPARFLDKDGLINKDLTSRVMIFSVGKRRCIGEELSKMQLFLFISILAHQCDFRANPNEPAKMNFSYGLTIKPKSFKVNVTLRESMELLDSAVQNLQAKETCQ
- Protocol Notes: Inhibition of recombinant human CYP1B1 at 3 uM incubated for 45 mins using 7-ethyl-O-resorufin substrate in presence of NADPH regenerating system by fluorescence based ethoxyresorufin-O-deethylase assay
- Assay Conditions: recombinant human CYP1B1, probe 7-ethyl-O-resorufin (7-ethoxyresorufin)
Give bare numbers, in %.

Solved cases (3 shown):
Compound Structure String | inhibition at 0.75 h, 3 µM, %
C[C@]12CC[C@@H]3c4cc(-c5ccc(Cl)cc5)c(O)cc4CC[C@H]3[C@@H]1CC[C@@H]2O | 99
COc1ccc(-c2cc3c(cc2O)CC[C@@H]2[C@@H]3CC[C@]3(C)[C@@H](O)CC[C@@H]23)cc1 | 100
CSc1ccc2c(c1)CC[C@@H]1[C@@H]2CC[C@]2(C)C(=O)CC[C@@H]12 | 34

Could you now look at the following compound, please?
Q: Annotate the compound C[C@]12CC[C@@H]3c4cc(-c5ccccc5)c(O)cc4CC[C@H]3[C@@H]1CCC2=O with its measured inhibition at 0.75 h, 3 µM.
Ans: 101

* * *

- Assay Target: CYP1B1 (Homo sapiens)
- Protocol Notes: Inhibition of recombinant human CYP1B1 at 0.3 uM incubated for 45 mins using 7-ethyl-O-resorufin substrate in presence of NADPH regenerating system by fluorescence based ethoxyresorufin-O-deethylase assay
- Assay Conditions: recombinant human CYP1B1, probe 7-ethyl-O-resorufin (7-ethoxyresorufin)
Answer each item with its documented inhibition at 0.75 h, 0.3 µM.
Quick note: unit goes after the number.

Compound | inhibition at 0.75 h, 0.3 µM
C[C@]12CC[C@@H]3c4cc(-c5cccc(F)c5)c(O)cc4CC[C@H]3[C@@H]1CC[C@@H]2O | 88%
COc1ccc(-c2cc3c(cc2O)CC[C@@H]2[C@@H]3CC[C@]3(C)C(=O)CC[C@@H]23)cc1 | 95%
C[S+]([O-])c1ccc2c(c1)CC[C@@H]1[C@@H]2CC[C@]2(C)C(=O)CC[C@@H]12 (stereo partly drawn) | 16%

Batch request: inhibition at 0.75 h, 0.3 µM per item, same order as input.
1. CSc1ccc2c(c1)CC[C@@H]1[C@@H]2CC[C@]2(C)C(=O)CC[C@@H]12
2. C[C@]12CC[C@@H]3c4cc(-c5ccc(F)c(F)c5)c(O)cc4CC[C@H]3[C@@H]1CCC2=O
3. COc1ccc(-c2cc3c(cc2OC)CC[C@@H]2[C@@H]3CC[C@@]3(C)[C@H]2CC[C@]3(C)O)cc1
4. C[C@]12CC[C@@H]3c4cc(-c5cccc(N)c5)c(O)cc4CC[C@H]3[C@@H]1CCC2=O
5. C[C@]12CC[C@@H]3c4ccc(S(C)(=O)=O)cc4CC[C@H]3[C@@H]1CC[C@@H]2O

Ans:
1. 14%
2. 77%
3. 8%
4. 36%
5. 0%

Values compiled from ChEMBL document CHEMBL4196212.
